- tested on: Huntingtin (Homo sapiens) (UniProt P42858)
- Sequence (P42858 whole entry, looked up, stated change not applied): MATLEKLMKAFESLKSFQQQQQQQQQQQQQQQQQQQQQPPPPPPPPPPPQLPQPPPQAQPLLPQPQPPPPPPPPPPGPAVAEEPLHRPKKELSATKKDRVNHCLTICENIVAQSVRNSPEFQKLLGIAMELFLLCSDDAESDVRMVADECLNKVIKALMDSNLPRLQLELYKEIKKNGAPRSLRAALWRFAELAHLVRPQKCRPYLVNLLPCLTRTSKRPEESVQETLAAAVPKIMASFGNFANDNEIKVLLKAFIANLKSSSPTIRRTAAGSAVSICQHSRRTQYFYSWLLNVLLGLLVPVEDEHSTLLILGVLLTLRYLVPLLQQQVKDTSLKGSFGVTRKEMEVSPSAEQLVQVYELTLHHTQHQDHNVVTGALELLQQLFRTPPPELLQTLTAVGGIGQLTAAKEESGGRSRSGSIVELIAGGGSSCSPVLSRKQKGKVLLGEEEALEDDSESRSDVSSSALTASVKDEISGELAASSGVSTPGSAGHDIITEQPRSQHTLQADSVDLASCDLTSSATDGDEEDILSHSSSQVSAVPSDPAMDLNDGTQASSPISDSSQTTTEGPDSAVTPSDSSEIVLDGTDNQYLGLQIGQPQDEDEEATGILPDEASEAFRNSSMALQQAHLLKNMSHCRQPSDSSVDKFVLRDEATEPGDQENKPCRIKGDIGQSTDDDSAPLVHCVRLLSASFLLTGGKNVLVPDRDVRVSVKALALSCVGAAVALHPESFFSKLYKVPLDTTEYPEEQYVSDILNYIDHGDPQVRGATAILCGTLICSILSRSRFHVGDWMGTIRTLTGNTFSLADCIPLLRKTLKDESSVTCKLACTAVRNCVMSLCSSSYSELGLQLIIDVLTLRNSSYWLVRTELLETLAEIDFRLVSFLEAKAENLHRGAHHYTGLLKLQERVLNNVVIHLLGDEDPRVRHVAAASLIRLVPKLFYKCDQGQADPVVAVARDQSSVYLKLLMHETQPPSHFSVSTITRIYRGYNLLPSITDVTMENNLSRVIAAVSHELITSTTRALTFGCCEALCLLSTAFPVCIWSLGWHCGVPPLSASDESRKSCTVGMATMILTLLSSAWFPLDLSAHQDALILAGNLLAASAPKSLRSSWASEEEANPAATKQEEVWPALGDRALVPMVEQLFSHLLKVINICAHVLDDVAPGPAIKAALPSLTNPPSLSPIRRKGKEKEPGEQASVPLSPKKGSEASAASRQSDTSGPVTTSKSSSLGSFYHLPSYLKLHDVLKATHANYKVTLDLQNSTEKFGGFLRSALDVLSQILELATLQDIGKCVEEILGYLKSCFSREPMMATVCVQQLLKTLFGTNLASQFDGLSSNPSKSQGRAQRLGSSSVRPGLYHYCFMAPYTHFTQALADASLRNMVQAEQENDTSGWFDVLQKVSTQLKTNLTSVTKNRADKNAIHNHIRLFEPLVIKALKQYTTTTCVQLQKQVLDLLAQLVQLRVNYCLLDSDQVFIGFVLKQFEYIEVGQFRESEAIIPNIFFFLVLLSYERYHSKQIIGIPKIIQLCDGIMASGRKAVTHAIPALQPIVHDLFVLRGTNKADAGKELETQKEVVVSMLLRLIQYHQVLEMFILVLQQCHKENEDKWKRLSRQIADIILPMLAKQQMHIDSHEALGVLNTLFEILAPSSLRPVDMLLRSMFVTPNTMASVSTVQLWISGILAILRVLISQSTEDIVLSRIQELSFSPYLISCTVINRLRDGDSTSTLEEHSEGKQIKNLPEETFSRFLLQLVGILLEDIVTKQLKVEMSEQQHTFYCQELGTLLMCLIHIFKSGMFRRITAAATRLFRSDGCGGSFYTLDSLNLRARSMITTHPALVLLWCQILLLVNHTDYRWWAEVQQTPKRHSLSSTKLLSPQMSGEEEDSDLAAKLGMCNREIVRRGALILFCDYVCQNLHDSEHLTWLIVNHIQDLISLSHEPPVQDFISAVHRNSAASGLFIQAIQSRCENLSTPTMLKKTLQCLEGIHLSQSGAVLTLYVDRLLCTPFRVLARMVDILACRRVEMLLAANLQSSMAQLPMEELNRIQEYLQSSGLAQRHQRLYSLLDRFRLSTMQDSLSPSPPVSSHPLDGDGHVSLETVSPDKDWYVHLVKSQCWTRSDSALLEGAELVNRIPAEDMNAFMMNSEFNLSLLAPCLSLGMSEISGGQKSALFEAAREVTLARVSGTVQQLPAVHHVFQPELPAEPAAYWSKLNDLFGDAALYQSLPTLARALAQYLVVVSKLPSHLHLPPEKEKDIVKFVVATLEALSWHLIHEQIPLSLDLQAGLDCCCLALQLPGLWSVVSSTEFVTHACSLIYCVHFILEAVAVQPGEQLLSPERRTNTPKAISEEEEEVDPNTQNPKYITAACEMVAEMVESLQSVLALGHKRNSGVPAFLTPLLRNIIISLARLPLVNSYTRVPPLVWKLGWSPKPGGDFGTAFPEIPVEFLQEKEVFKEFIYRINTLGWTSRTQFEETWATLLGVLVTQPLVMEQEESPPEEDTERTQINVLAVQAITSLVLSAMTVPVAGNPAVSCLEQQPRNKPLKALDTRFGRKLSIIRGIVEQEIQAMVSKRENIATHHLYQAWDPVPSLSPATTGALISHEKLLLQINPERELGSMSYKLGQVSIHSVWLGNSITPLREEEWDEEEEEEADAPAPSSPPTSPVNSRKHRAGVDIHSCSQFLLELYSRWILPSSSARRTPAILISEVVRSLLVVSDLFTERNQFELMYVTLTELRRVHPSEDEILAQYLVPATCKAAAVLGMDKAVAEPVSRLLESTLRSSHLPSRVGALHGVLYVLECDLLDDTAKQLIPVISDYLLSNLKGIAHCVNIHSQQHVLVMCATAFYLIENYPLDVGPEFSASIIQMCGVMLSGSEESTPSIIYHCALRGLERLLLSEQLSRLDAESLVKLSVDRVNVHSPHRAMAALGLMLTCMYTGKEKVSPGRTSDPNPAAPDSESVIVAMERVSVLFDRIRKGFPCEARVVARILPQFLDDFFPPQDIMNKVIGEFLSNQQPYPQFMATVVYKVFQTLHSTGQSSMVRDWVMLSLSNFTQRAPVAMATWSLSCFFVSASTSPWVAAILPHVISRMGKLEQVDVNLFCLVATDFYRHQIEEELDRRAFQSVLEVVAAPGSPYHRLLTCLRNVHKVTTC
- assay remarks: mutant huntingtin-calmodulin interaction inhibitors – biochemical, AlphaScreen, primary screen (AID 1671202);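 further: 0% = both proteins with DMSO and 100% = one protein alone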
- condition details: AlphaScreen His-mHTT/GST-CaM binding, luminescence; at 15 µM, stronger effect = higher value
Among all 190,000 compounds or so, about 6,900 (3.6%) were called active. Many of the other results were omitted from the sample, so actives are more common in it than they were.
recorded endpoint: inhibition (%)
Your answer is read as %, so omit the unit and give the number.

Check out these entries, answers already filled in.
>>> endpoint_result("Cc1ccc(NC(=O)CC2COc3ccc(Cl)cc3NC2=O)cc1Cl (stereo not given)")
92.5
>>> endpoint_result("COc1ccc(C2=N/C(=C\\c3ccc(Cl)cc3)C(=O)O2)cc1OC")
-4
>>> endpoint_result("COCOCCn1cc(CN2CCS(=O)(=O)N(Cc3ccc(-c4cccc(N(C)C)c4)cc3)C(CC(C)C)C2=O)nn1 (stereo not given)")
65.8
>>> endpoint_result("O=C(CSc1nccn1-c1ccccc1)Nc1ccccc1C(F)(F)F")
18
>>> endpoint_result("COc1ccc(NC(=O)c2cc(S(=O)(=O)NCCc3ccc(Cl)cc3)ccc2F)cc1")
20

[in] // lookup inhibition for COc1ccc(C(=O)N2CCOC(COc3ccc(C)cc3)C2)cc1 (stereo not given)
[out] 4.7
